- TARGET OR TEST SYSTEM: KRas G12D/Q61H double mutant (Homo sapiens (Human), UniProt P01116, G12D/Q61H)
- Sequence (P01116-2 other isoform, or with tags, fused parts or gaps G12D/Q61H): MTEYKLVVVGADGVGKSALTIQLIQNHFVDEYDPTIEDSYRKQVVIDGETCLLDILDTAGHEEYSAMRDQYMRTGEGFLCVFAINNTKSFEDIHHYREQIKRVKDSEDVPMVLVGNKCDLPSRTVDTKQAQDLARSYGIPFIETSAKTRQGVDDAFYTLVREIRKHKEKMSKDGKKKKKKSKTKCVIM
- PROTOCOL NOTES: Ras GTP binding domain inhibition assay (labeled GTP)
- COND: 20 μM compound; read-out: % Inhibition at 20 μM KRas G12D Q61H
ASSAY METRIC: inhibition at 20 µM

- N#CC1CN(c2nccc(C(F)(F)F)n2)CCN1Cc1ccccc1 (centres unmarked): 1 to 25%
- CN(C)C1CN(C(=O)Nc2nc(-c3cccnc3)cs2)C1: 1 to 25%
- Oc1nc(-c2ccccn2)nc2c(-c3cccc4c3OCO4)csc12 [drawing 2849]: 51 to 75%
- O=C(OCCc1cccnc1)N1CCCc2c(O)nc(-c3ccccn3)nc21: 51 to 75%
- Oc1nc(-c2ccccn2)nc2c(-c3ccccc3OC3CCCCC3)csc12 [drawing 2866]: 51 to 75%
